Origin of measurements: patent US6344351B2

System: (R)-form-specific transaminase of Arthrobacter sp. KNK168
Assay: Reactivity of purified enzyme to carbonyl compounds, (R)-1-phenylethylamine as amino donor
Assay type: biochemical
Settings: purified enzyme; 25 mM carbonyl compound, 25 mM (R)-1-phenylethylamine, pH 8.5, 30° C., 1 to 3 hours; pyruvic acid = 100
measured_endpoint: Relative Activity (%) of carbonyl compounds
Your answer should be a plain number; it is taken to be in %.

Prompt line: Which Relative Activity (%) of carbonyl compounds reading was recorded for the compound CCC(=O)Cc1ccccc1 ?
Response line: 1

Prompt line: // query: CC(=O)CCc1ccccc1
Response line: 3

Prompt line: Do the same for O=C1CCCc2ccccc21 please
Response line: 1

Prompt line: Same lookup for CC(=O)c1ccco1 , please.
Response line: 2

Prompt line: // repeat for CC(=O)C(C)=O and report
Response line: 10

Prompt line: Next compound: CC(=O)c1cccnc1
Response line: 8

Prompt line: Continue with CCOC(=O)CC(C)=O [Ethyl acetoacetate]
Response line: 4

Prompt line: Can you handle O=CCc1ccccc1 next?
Response line: 13

Prompt line: Then what about the compound CCOC(=O)C(C)=O [Ethyl pyruvate] ?
Response line: 27

Prompt line: Item: COCC(C)=O
Response line: 16

Prompt line: Entry to check: CC(=O)COc1ccccc1
Response line: 83

Prompt line: Field entry: CC(=O)c1nccs1
Response line: 10

Prompt line: Lookup O=CC(=O)O
Response line: 4

Prompt line: Could you do the same for CCC(=O)C(=O)O , please?
Response line: 7

Prompt line: // repeat for CC(=O)c1ccccn1 and report
Response line: 19

Prompt line: What do you get for CC(=O)C(=O)O ?
Response line: 100

Prompt line: Query O=C(O)CC(=O)C(=O)O next
Response line: 87

Prompt line: Thanks! And COc1ccc(CC(C)=O)cc1OC ?
Response line: 7

Prompt line: Could you do the same for CC(=O)c1cccs1 , please?
Response line: 1

Prompt line: And the next one, CC(=O)Oc1cccnc1 ?
Response line: 1

Prompt line: Quick one: COc1ccc(CCC(C)=O)cc1
Response line: 7

Prompt line: Entry to check: CC(=O)c1ccncc1
Response line: 27

Prompt line: Same again, this time with CC(=O)c1cnccn1
Response line: 17

Prompt line: And what about the compound CCOC(=O)CC(=O)c1ccccc1 [Ethyl benzoyl acetate] ?
Response line: 2
